- experiment description: BTK FAC plasma stability assay, dog plasma
- Format: in vitro ADME
readout kind: Plasma stability (h) dog

// sample CCCCCCCCCCCN(C(=O)CCCCCCCCCC(=O)O)C(CCC(=O)NCCOCCOCCOCCOCCOCCOCCOCCOCCOCCOCCOCCOCCC(=O)N1CCC[C@H]1CC(=O)OC(C)(C)c1ccc(C(=O)Nc2cc(F)cc(-c3ncnc4[nH]c(-c5ccc(CCN6CCC7(CC6)CCN(C(=O)c6ccc(OC)c(N8CCC(=O)NC8=O)c6)CC7)cc5)cc34)c2C)c(F)c1)C(=O)O (stereo partly drawn) , its Plasma stability (h) dog was >48 h

// sample CCCCCCCCCCCN(C(=O)CCCCCCCCCC(=O)O)C(CCC(=O)NCCOCCOCCOCCOCCOCCOCCOCCOCCOCCOCCOCCOCCC(=O)NCCC(=O)OC(C)(C)c1ccc(C(=O)Nc2cc(F)cc(-c3ncnc4[nH]c(-c5ccc(CCN6CCC7(CC6)CCN(C(=O)c6ccc(OC)c(N8CCC(=O)NC8=O)c6)CC7)cc5)cc34)c2C)c(F)c1)C(=O)O (stereo not drawn) , its Plasma stability (h) dog was >48 h

// sample CCCCCCCCCCCN(C(=O)CCCCCCCCCC(=O)O)C(CCC(=O)NCCOCCOCCOCCOCCOCCOCCOCCOCCOCCOCCOCCOCCC(=O)N[C@H](C)C(=O)OC(C)(C)c1ccc(C(=O)Nc2cc(F)cc(-c3ncnc4[nH]c(-c5ccc(CCN6CCC7(CC6)CCN(C(=O)c6ccc(OC)c(N8CCC(=O)NC8=O)c6)CC7)cc5)cc34)c2C)c(F)c1)C(=O)O (stereo partly drawn) , its Plasma stability (h) dog was 33.3 h
